Test system: HOP-62 NSCLC
Test: NCI-60 one-dose screen, 48 h (100 = growth as untreated, 0 = no growth, -100 = all killed)
Details: 10 µM unless noted
About 83,000 compounds went through this panel and 20% of them were active in at least one assay; those are over-represented in the sample as a whole.
Quantity measured: growth (%)
The figure you give is taken to be in %; do not add the unit.

1) COc1ccc(C2=C/C(=C\c3ccc(Cl)cc3)C(=O)N2/N=C/c2ccc(Cl)cc2)cc1; 97.8
2) O=C1/C(=C/c2ccccc2[N+](=O)[O-])COc2ccc(O)cc21; 29.1
3) CC(C)c1ccc(-n2c(=S)[nH]c3sc4c(c3c2=O)CCC(=O)C4)cc1; 33.9
4) CCCn1c(=S)sc2c1nc(C)n1c(Nc3ccccc3)nnc21; 75.5
5) COc1cc(Nc2c3ccc(Cl)cc3nc3ccc(OC)cc23)c2ncccc2c1; 50.1
6) COc1cc2ncnc(Nc3ccc(F)c(Cl)c3)c2cc1OCC(=O)N1CCN(c2ccc(F)cc2)CC1; 95.2
7) C[C@@H]1CC[C@@]2(OC1)O[C@H]1C[C@H]3[C@@H]4CC=C5C[C@@H](O[C@@H]6O[C@H](CO)[C@@H](O[C@@H]7O[C@@H](CO)[C@H](O)[C@H]7O)[C@H](O)[C@H]6O[C@@H]6O[C@@H](C)[C@H](O)[C@@H](O)[C@H]6O)CC[C@]5(C)[C@H]4CC[C@]3(C)[C@H]1[C@@H]2C; 6.56

Continue with the compound presented below.
Query: For HOP-62 NSCLC, give the measured growth of the entry `COc1ccc2c(c1)c(-c1nonc1-c1cn(C)c3ccc(OC)cc13)cn2C`
Result: 32.4
